FYI, the data here is from patent US8354419B2.

- Test system: HCV (Ib) RNA replication
- assay.name: Cell-based luciferase reporter HCV (1b) RNA replication assay (replicon cell lines Huh-7 5.2 and ET)
- Parameters: species or system Hepatitis C virus
- measurement.parameters: Hepatitis C virus, Huh-7, 96 h, HCV 1b genotype replicon, luciferase readout, 4 days incubation; read-out: EC50_1b
assay.metric: EC50

Lookup: Look up EC50: COC(=O)N[C@H](C(=O)N1CCC[C@H]1c1nc2cc(C#Cc3ccc(-c4ccc5[nH]c([C@@H]6CCCN6C(=O)[C@@H](NC(=O)OC)C(C)C)nc5c4)cc3)ccc2[nH]1)C(C)C
Found: ≤ 5 nM

Lookup: Look up EC50: C[C@H]1CN(c2ccc3nc([C@@H]4CCCN4C(=O)OC(C)(C)C)[nH]c3c2)CCN1c1ccc2nc([C@@H]3CCCN3C(=O)OC(C)(C)C)[nH]c2c1
Found: 5 to 5000 nM

Lookup: Look up EC50: CC(=O)N[C@@H](C(=O)N1CCC[C@@H]1c1nc2cc(C#Cc3ccc4[nH]c([C@H]5CCCN5C(=O)[C@H](NC(C)=O)C(C)C)nc4c3)ccc2[nH]1)C(C)C
Found: 5 to 5000 nM

Lookup: Look up EC50: COC(=O)N[C@H](C(=O)N1C[C@H](OC)C[C@H]1c1nc2cc(-c3ccc(-c4ccc5[nH]c([C@@H]6C[C@@H](OC)CN6C(=O)[C@@H](NC(=O)OC)C(C)C)nc5c4)cc3)ccc2[nH]1)C(C)C
Found: ≤ 5 nM

Lookup: Look up EC50: COC(=O)N[C@H](C(=O)N1CCCC[C@H]1c1nc2ccc(-c3ccc(-c4ccc5nc([C@@H]6CCCCN6C(=O)[C@@H](NC(=O)OC)C(C)C)[nH]c5c4)cc3)cc2[nH]1)C(C)C
Found: ≤ 5 nM

---

Give measured EC50 for each item. Keep answers brief.
- Tested on: HCV (Ib) RNA replication
- assay.name: Cell-based luciferase reporter HCV (1b) RNA replication assay (replicon cell lines Huh-7 5.2 and ET)
- Parameters: species or system Hepatitis C virus
- measurement.parameters: Hepatitis C virus, Huh-7, 96 h, HCV 1b genotype replicon, luciferase readout, 4 days incubation; read-out: EC50_1b

Lookup: Look up EC50: COC(=O)N[C@H](C(=O)N1CCC[C@H]1c1nc2cc(-c3c(F)cc(-c4ccc5nc([C@@H]6CCCN6C(=O)[C@@H](NC(=O)OC)C(C)C)[nH]c5c4)cc3F)ccc2[nH]1)C(C)C
Found: ≤ 5 nM

Lookup: Look up EC50: COC(=O)N[C@H](C(=O)N1CCC[C@H]1c1nc2cc(C#Cc3ccc4[nH]c([C@@H]5CCCN5C(=O)[C@@H](NC(=O)OC)C(C)(C)C)nc4c3)ccc2[nH]1)C(C)C
Found: ≤ 5 nM

Lookup: Look up EC50: COC(=O)N[C@H](C(=O)N1CCC[C@H]1c1nc2cc(C#Cc3ccc4nc([C@@H]5CCCN5C(=O)NC5CCCCC5)[nH]c4c3)ccc2[nH]1)C(C)C
Found: 5 to 5000 nM

Lookup: Look up EC50: COC(=O)N[C@H](C(=O)N1[C@@H](C)CC[C@H]1c1nc2cc(-c3csc4c(-c5ccc6[nH]c([C@@H]7CC[C@H](C)N7C(=O)[C@@H](NC(=O)OC)C(C)C)nc6c5)csc34)ccc2[nH]1)C(C)C
Found: ≤ 5 nM

Lookup: Look up EC50: CCC(CC)CN1CCC[C@H]1c1nc2cc(C#Cc3ccc4[nH]c([C@@H]5CCCN5CC(CC)CC)nc4c3)ccc2[nH]1
Found: 5 to 5000 nM

---

- System: HCV (Ib) RNA replication
- assay.name: Cell-based luciferase reporter HCV (1b) RNA replication assay (replicon cell lines Huh-7 5.2 and ET)
- Parameters: species or system Hepatitis C virus
- measurement.parameters: Hepatitis C virus, Huh-7, 96 h, HCV 1b genotype replicon, luciferase readout, 4 days incubation; read-out: EC50_1b
assay.metric: EC50

Lookup: Look up EC50: CC(C)CCN1CCC[C@H]1c1nc2cc(C#Cc3ccc4[nH]c([C@@H]5CCCN5CCC(C)C)nc4c3)ccc2[nH]1
Found: 5 to 5000 nM

Lookup: Look up EC50: COC(=O)N[C@H](C(=O)N1CCC[C@H]1c1nc2ccc(-c3cccc(-c4ccc5nc([C@@H]6CCCN6C(=O)[C@@H](NC(=O)OC)C(C)C)[nH]c5c4)c3)cc2[nH]1)C(C)C
Found: 5 to 5000 nM

Lookup: Look up EC50: COCCCC(=O)N1CCC[C@H]1c1nc2cc(C#Cc3ccc4[nH]c([C@@H]5CCCN5C(=O)CCCOC)nc4c3)ccc2[nH]1
Found: 5 to 5000 nM

---

- Tested on: HCV (Ib) RNA replication
- assay.name: Cell-based luciferase reporter HCV (1b) RNA replication assay (replicon cell lines Huh-7 5.2 and ET)
- Parameters: species or system Hepatitis C virus
- measurement.parameters: Hepatitis C virus, Huh-7, 96 h, HCV 1b genotype replicon, luciferase readout, 4 days incubation; read-out: EC50_1b
pEC50: −log10 of the molar value.
assay.metric: pEC50

Lookup: Look up pEC50: COC(=O)N[C@H](C(=O)N1[C@H](c2nc3cc(-c4ccc(-c5ccc6[nH]c([C@@H]7C[C@@H]8C[C@@H]8N7C(=O)[C@@H](NC(=O)OC)C(C)C)nc6c5)cc4)ccc3[nH]2)C[C@@H]2C[C@@H]21)C(C)C
Found: ≥ 8.30

Lookup: Look up pEC50: COC(=O)N[C@H](C(=O)N1CCC[C@H]1c1nc2cc(-c3ccc(-c4ccc5[nH]c([C@@H]6CCCN6C(=O)[C@@H](NC(=O)OC)C(C)C)nc5c4)c(S(C)(=O)=O)c3)ccc2[nH]1)C(C)C
Found: ≥ 8.30

Lookup: Look up pEC50: COC(=O)N[C@H](C(=O)N1CCC[C@H]1c1nc2cc(-c3cnc(-c4ccc5[nH]c([C@@H]6CCCN6C(=O)[C@@H](NC(=O)OC)C(C)C)nc5c4)nc3)ccc2[nH]1)C(C)C
Found: ≥ 8.30

Lookup: Look up pEC50: COC(=O)N(C)[C@H](C(=O)N1C[C@@H](C)C[C@H]1c1nc2cc(-c3ccc(-c4ccc5[nH]c([C@@H]6C[C@H](C)CN6C(=O)[C@H](C(C)C)N(C)C(=O)OC)nc5c4)c(F)c3)ccc2[nH]1)C(C)C
Found: ≥ 8.30

Lookup: Look up pEC50: COC(=O)N[C@H](C(=O)N1[C@@H](C)CC[C@H]1c1nc2ccc(-c3ccc(-c4ccc5nc([C@@H]6CC[C@H](C)N6C(=O)[C@@H](NC(=O)OC)C(C)C)[nH]c5c4)c4nsnc34)cc2[nH]1)C(C)C
Found: ≥ 8.30

Lookup: Look up pEC50: COC(=O)N[C@H](C(=O)N1CCC[C@H]1c1nc2cc(-c3ccc(-c4ccc5nc([C@@H]6CCCN6C(=O)[C@@H](NC(=O)OC)C(C)C)[nH]c5c4)cc3C(=O)OC)ccc2[nH]1)C(C)C
Found: ≥ 8.30

Lookup: Look up pEC50: COC(=O)N[C@H](C(=O)N1CCC[C@H]1c1nc2cc(N3CCN(c4ccc5[nH]c([C@@H]6CCCN6C(=O)[C@@H](NC(=O)OC)C(C)C)nc5c4)[C@@H](C)C3)ccc2[nH]1)C(C)C
Found: ≥ 8.30

Lookup: Look up pEC50: COC(=O)N[C@H](C(=O)N1CCC[C@H]1c1nc2cc(-c3ccc(-c4ccc5nc([C@@H]6CCCN6C(=O)CCCC[C@@H]6SC[C@@H]7NC(=O)N[C@@H]76)[nH]c5c4)cc3)ccc2[nH]1)C(C)C
Found: ≥ 8.30

Lookup: Look up pEC50: CC(=O)N[C@H](C(=O)N1CCC[C@H]1c1nc2cc(C#Cc3ccc4[nH]c([C@@H]5CCCN5C(=O)[C@H](NC(C)=O)C(C)C)nc4c3)ccc2[nH]1)C(C)C
Found: 5.30 to 8.30

Lookup: Look up pEC50: [2H]C1([2H])Oc2c(-c3ccc4[nH]c([C@@H]5CCCN5C(=O)[C@@H](NC(=O)OC)C(C)C)nc4c3)ccc(-c3ccc4[nH]c([C@@H]5CCCN5C(=O)[C@@H](NC(=O)OC)C(C)C)nc4c3)c2O1
Found: ≥ 8.30

Lookup: Look up pEC50: COC(=O)N[C@@H](Cc1cncn1C)C(=O)N1CCC[C@H]1c1nc2cc(-c3ccc(-c4ccc5[nH]c([C@@H]6CCCN6C(=O)[C@@H](NC(=O)OC)C(C)C)nc5c4)cc3)ccc2[nH]1
Found: ≥ 8.30

Lookup: Look up pEC50: COC(=O)N[C@H](C(=O)N1CCC[C@H]1c1nc2ccc(-c3cn(C)c(-c4ccc5nc([C@@H]6CCCN6C(=O)[C@@H](NC(=O)OC)C(C)C)[nH]c5c4)n3)cc2[nH]1)C(C)C
Found: 5.30 to 8.30

Lookup: Look up pEC50: COCC(=O)N[C@H](C(=O)N1CCC[C@H]1c1nc2ccc(-c3ccc(-c4ccc5nc([C@@H]6CCCN6C(=O)[C@@H](NC(=O)COC)C(C)C)[nH]c5c4)cc3)cc2[nH]1)C(C)C
Found: 5.30 to 8.30

Lookup: Look up pEC50: COC(=O)N[C@@H](C(=O)N1CC[C@H]1c1nc2cc(C#CC#Cc3ccc4[nH]c([C@@H]5CCN5C(=O)[C@H](NC(=O)OC)C(C)C)nc4c3)ccc2[nH]1)C(C)C
Found: ≥ 8.30

Lookup: Look up pEC50: COC(=O)N[C@H](C(=O)N1CCC[C@H]1c1nc2cc(-c3cc(C)c(-c4ccc5[nH]c([C@@H]6CCCN6C(=O)[C@@H](NC(=O)OC)C(C)C)nc5c4)s3)ccc2[nH]1)C(C)C
Found: ≥ 8.30

Lookup: Look up pEC50: O=C(NC1CC1)c1nc2cc(C#Cc3ccc4[nH]c([C@@H]5CCCN5C(=O)OCc5ccccc5)nc4c3)ccc2[nH]1
Found: 5.30 to 8.30

Lookup: Look up pEC50: COC(=O)N[C@H](C(=O)N1CCC[C@H]1c1nc2cc(-c3cnc(-c4ccc5[nH]c([C@@H]6CCCN6C(=O)[C@@H](NC(=O)OC)C(C)C)nc5c4)c(C)c3)ccc2[nH]1)C(C)C
Found: ≥ 8.30

Lookup: Look up pEC50: COC(=O)N[C@H](C(=O)N1C[C@@H](C)C[C@H]1c1nc2cc(-c3cc4sc(-c5ccc6[nH]c([C@@H]7C[C@H](C)CN7C(=O)[C@@H](NC(=O)OC)C(C)C)nc6c5)cc4s3)ccc2[nH]1)C(C)C
Found: ≥ 8.30
